Recorded viability at 24 h, 5 µM for the following compounds
experiment: MTT assay: HT22 cell viability with compound alone; type: cell-based, mouse; settings: mouse, HT22 cells; HT22 cell viability after 24 h of treatment with 5 μM compound, no Aβ
Write down the numeric answer in % and omit the unit.

COc1ccc(CNC(=O)C(c2cccnc2)N(C(=O)c2csnn2)c2ccc(C(C)(C)C)cc2)cc1 (stereo not shown) [Compound 8] :: 34
CCCCn1c(SCC(=O)Nc2ccc(OC)c(OC)c2)nc2sc3c(c2c1=O)CCN(C(C)=O)C3 [Compound 61] :: 97
COc1ccc(NC(=O)CSc2nc3sc4c(c3c(=O)n2C(C)C)CCN(C(C)=O)C4)cc1OC [Compound 62] :: 94

We now examine a further compound.
Ask | What value of viability at 24 h, 5 µM has been recorded for this entry: NC(=O)CN1CCCC1=O [Piracetam, piracetam, reference compound]
Reply | 132

====

Assay: Liver microsomal stability
Type: in vitro ADME
Settings: human, liver microsomes, 1 µM compound, 0.5 mg/mL microsomes, 30 min, 37 °C; read-out: Human Liver Microsomal Stability (% remaining after 30 min)
Procedure: Liver microsomes (human, dog, rat, and mouse; 0.5 mg/mL) were incubated with 1 µM of each test compound in the presence of potassium phosphate buffer (PPB) for 5 min at 37 °C. […] The mixture was separated by centrifugation (14,000 rpm for 5 min at 4 °C), and the supernatant was analysed by LC-MS/MS (Shimadzu Nexera XR system and TSQ vantage; Thermo Scientific).
measurement.kind: remaining at 0.5 h, 1 µM (%)
Numbers only here, please. The scale is %.

Ask | # input compound: CCOc1ccc(-n2c(SCC(=O)Nc3ccc(OC)c(OC)c3)nc3sc4c(c3c2=O)CCN(C(C)=O)C4)cc1 ; wanted: its remaining at 0.5 h, 1 µM
Reply | 49.6

Ask | Given the compound CCOc1ccc(-n2c(SCC(=O)N3CCC(Cc4ccccc4)CC3)nc3sc4c(c3c2=O)CCN(C(C)=O)C4)cc1 , what is its reported remaining at 0.5 h, 1 µM?
Reply | 2.2

Ask | Any idea what remaining at 0.5 h, 1 µM was measured for CCOc1ccc(-n2c(SCC(=O)Nc3ccc(OC)c(OC)c3)nc3sc4c(c3c2=O)CCN(C)C4)cc1 ?
Reply | 63.4

====

target: CYP1A2 (Homo sapiens, UniProt P05177); construct: purchased Invitrogen, Madison, WI, USA; experiment: CYP inhibition assay (Vivid CYP450 screening kit); format: in vitro ADME; settings: 10 μM compound
Sequence (P05177 2-516 limits assumed): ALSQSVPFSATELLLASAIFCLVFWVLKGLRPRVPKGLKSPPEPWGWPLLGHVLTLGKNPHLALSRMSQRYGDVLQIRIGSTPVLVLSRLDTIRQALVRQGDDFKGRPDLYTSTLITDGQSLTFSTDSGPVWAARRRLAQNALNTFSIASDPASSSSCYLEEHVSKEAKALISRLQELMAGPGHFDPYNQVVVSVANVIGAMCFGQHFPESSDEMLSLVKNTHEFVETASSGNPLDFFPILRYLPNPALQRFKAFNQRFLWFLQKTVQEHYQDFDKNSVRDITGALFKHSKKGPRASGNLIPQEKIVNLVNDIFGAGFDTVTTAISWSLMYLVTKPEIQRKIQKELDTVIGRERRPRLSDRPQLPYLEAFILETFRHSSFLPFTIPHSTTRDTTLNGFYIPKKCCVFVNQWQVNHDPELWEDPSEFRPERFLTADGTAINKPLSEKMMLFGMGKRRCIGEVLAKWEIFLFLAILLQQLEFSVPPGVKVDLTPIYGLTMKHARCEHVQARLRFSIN
Below, each of the compounds is paired with its reported CYP450 (% remaining Activity at 10 μM) CYP1A2 value.
Express the result in % but write the number alone.

Worked cases, CYP450 (% remaining Activity at 10 μM) CYP1A2 given:
CCOc1ccc(-n2c(SCC(=O)Nc3ccc(Cl)cc3)nc3sc4c(c3c2=O)CCN(C(C)=O)C4)cc1 [Compound 35] :: 120.0
CCOc1ccc(-n2c(SCC(=O)N(CC)Cc3ccccc3)nc3sc4c(c3c2=O)CCN(C)C4)cc1 [Compound 51] :: 98.7

Now consider the entry below.
Ask | What CYP450 (% remaining Activity at 10 μM) CYP1A2 appears in the records for this compound with CYP1A2 (Homo sapiens, UniProt P05177)? CCOc1ccc(-n2c(SCC(=O)NCc3ccccc3)nc3sc4c(c3c2=O)CCN(C(C)=O)C4)cc1 [Compound 31]
Reply | 143.1

// provenance: paper PMC7996082
